Could you please report measured fold lower kcat compared to Pnc1 WT for the items listed next?
Tested on: Pnc1 WT or mutant
Assay: Steady-state kinetic parameters of Pnc1 mutants, enzyme-coupled assay
Assay type: biochemical, S. cerevisiae
Details: substrate nicotinamide
The reply should contain only the number, in fold.

q: Requested read-out: fold lower kcat compared to Pnc1 WT. Entry: K122A (protein, UniProt P53184 1-216, looked up, variant K122A) Nicotinamidase: MKTLIVVDMQNDFISPLGSLTVPKGEELINPISDLMQDADRDWHRIVVTRDWHPSRHISFAKNHKDKEPYSTYTYHSPRPGDDSTQEGILWPVHCVKNTWGSQLVDQIMDQVVTKHIKIVDAGFLTDREYYSAFHDIWNFHKTDMNKYLEKHHTDEVYIVGVALEYCVKATAISAAELGYKTTVLLDYTRPISDDPEVINKVKEELKAHNINVVDK
a: 16

q: Requested read-out: fold lower kcat compared to Pnc1 WT. Entry: D8A (protein, UniProt P53184 1-216, looked up, variant D8A) Nicotinamidase: MKTLIVVAMQNDFISPLGSLTVPKGEELINPISDLMQDADRDWHRIVVTRDWHPSRHISFAKNHKDKEPYSTYTYHSPRPGDDSTQEGILWPVHCVKNTWGSQLVDQIMDQVVTKHIKIVDKGFLTDREYYSAFHDIWNFHKTDMNKYLEKHHTDEVYIVGVALEYCVKATAISAAELGYKTTVLLDYTRPISDDPEVINKVKEELKAHNINVVDK
a: 767

q: Requested read-out: fold lower kcat compared to Pnc1 WT. Entry: D8E (protein, UniProt P53184 1-216, looked up, variant D8E) Nicotinamidase: MKTLIVVEMQNDFISPLGSLTVPKGEELINPISDLMQDADRDWHRIVVTRDWHPSRHISFAKNHKDKEPYSTYTYHSPRPGDDSTQEGILWPVHCVKNTWGSQLVDQIMDQVVTKHIKIVDKGFLTDREYYSAFHDIWNFHKTDMNKYLEKHHTDEVYIVGVALEYCVKATAISAAELGYKTTVLLDYTRPISDDPEVINKVKEELKAHNINVVDK
a: 100

q: Requested read-out: fold lower kcat compared to Pnc1 WT. Entry: K122R (protein, UniProt P53184 1-216, looked up, variant K122R) Nicotinamidase: MKTLIVVDMQNDFISPLGSLTVPKGEELINPISDLMQDADRDWHRIVVTRDWHPSRHISFAKNHKDKEPYSTYTYHSPRPGDDSTQEGILWPVHCVKNTWGSQLVDQIMDQVVTKHIKIVDRGFLTDREYYSAFHDIWNFHKTDMNKYLEKHHTDEVYIVGVALEYCVKATAISAAELGYKTTVLLDYTRPISDDPEVINKVKEELKAHNINVVDK
a: 767

Reference source: paper PMC3257521
